So I've got a bunch of binders here, and I need their KD relative to parental chimera values.
Target: T1, Cynomolgus Monkey VSIG4-L-His (cynomolgus monkey)
T1 construct: ECD with His tag; also called cyVSIG4-L; cyno VSIG4-L-His
T1 chain: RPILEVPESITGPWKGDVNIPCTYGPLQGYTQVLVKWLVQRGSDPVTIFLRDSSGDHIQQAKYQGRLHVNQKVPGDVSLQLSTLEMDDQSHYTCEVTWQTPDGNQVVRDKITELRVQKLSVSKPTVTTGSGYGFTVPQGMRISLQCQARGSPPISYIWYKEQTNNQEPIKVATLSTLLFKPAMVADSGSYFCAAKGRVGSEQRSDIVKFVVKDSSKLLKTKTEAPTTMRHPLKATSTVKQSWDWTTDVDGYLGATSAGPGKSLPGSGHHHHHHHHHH
Assay: BLI, IgG on AHC sensor, antigen 100 nM

>  <Binder>
h14C05.B humanized IgG4 (S228P) kappa (antibody, V domains shown) VH: QVQLVQSGSELKKPGASVKVSCKASGYTFTNYGMNWVRQAPGQGLEWMGSINTYTGEATYADGFTGRFVFSLDTSVNTAYLQISSLKAEDTAVYYCARGDYYGRGTWFAYWGQGTLVTVSS VL: ETQVTQSPSSLSASVGDRVTITCRASQDVSTAVAWYQQKPGKAPKLLIYSASYRYPGVPSRFSGSGSGTDFTLTISSLQPEDFATYYCQQDYSSPWTFGGGTKLEIKR

>  <KD relative to parental chimera>
0.7 fold

$$$$
>  <Binder>
h14C05.G humanized IgG4 (S228P) kappa (antibody, V domains shown) VH: QVQLVQSGSELKKPGASVKVSCKASGYTFTNYGMNWVRQAPGQGLEWMGSINTYTGEATYAQGFTGRFVFSLDTSVSTAYLQISSLKAEDTAVYYCARGDYYGRGTWFAYWGQGTLVTVSS VL: ETQVTQSPSSLSASVGDRVTITCRASQDVSTAVAWYQQKPGKAPKLLIYSASYRYPGVPSRFSGSGSGTDFTLTISSLQPEDFATYYCQQDYSSPWTFGGGTKLEIKR

>  <KD relative to parental chimera>
0.7 fold

$$$$

Switching to the query record.
Request: Would you mind telling me what KD relative to parental chimera value was observed for h14C05.F humanized IgG4 (S228P) kappa (antibody, V domains shown) VH: QVQLVQSGSELKKPGASVKVSCKASGYTFTNYGMNWVRQAPGQGLEWMGSINTYTGEATYADDFKGRFVFSLDTSVNTAYLQISSLKAEDTAVYYCARGDYYGRGTWFAYWGQGTLVTVSS VL: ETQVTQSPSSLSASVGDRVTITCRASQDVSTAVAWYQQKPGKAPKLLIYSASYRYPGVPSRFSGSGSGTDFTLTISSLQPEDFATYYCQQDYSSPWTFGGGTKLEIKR ?
Response: 0.7 fold
